Molecular target: HLA-A*68:02
Test: IEDB peptide-MHC binding, purified MHC/direct/fluorescence; filed as Kd, often an IC50 or EC50 that approximates it; bounds were set here for any values at or beyond the usual limits of such assays
Settings: source organism: Vibrio cholerae
Let's look at some sequences and their measured Kd.
Measure Name: Kd

{"Residues": "AADFPGIAR", "Measure Name": "Kd", "Reported Value": "≥ 20 µM"}
{"Residues": "KGHLPLLDK", "Measure Name": "Kd", "Reported Value": "≥ 20 µM"}

* * *

Target: HLA-C*07:02
Experiment: IEDB peptide-MHC binding, purified MHC/direct/fluorescence; filed as Kd, often an IC50 or EC50 that approximates it; bounds were set here for any values at or beyond the usual limits of such assays
Conditions: source organism: Orthohantavirus sinnombreense

{"Residues": "YRTLGVFRY", "Measured Target": "HLA-C*07:02", "Kd": "48 nM"}

* * *

Target: HLA-A*26:01
Test: IEDB peptide-MHC binding, purified MHC/competitive/radioactivity; filed as Kd, often an IC50 or EC50 that approximates it; bounds were set here for any values at or beyond the usual limits of such assays
Details: source organism: Variola virus

{"Residues": "SQSDTVFDH", "Measured Target": "HLA-A*26:01", "Kd": "≥ 77.9 µM"}

* * *

Target: HLA-A*29:02
Test: IEDB peptide-MHC binding, purified MHC/competitive/radioactivity; filed as Kd, often an IC50 or EC50 that approximates it; bounds were set here for any values at or beyond the usual limits of such assays
Settings: source organism: Mammarenavirus guanaritoense
pKd: −log10 of the molar value.

{"Residues": "VPDIPELSY", "pKd": 4.93}

* * *

Target: HLA-A*26:01
Test: IEDB peptide-MHC binding, purified MHC/direct/fluorescence; filed as Kd, often an IC50 or EC50 that approximates it; bounds were set here for any values at or beyond the usual limits of such assays
Details: source organism: Toxoplasma gondii
pKd: −log10 of the molar value.

{"Residues": "AYMDRKSFK", "pKd": "≤ 4.70"}

* * *

Biological target: HLA-A*01:01
Assay: IEDB peptide-MHC binding, purified MHC/direct/fluorescence; filed as Kd, often an IC50 or EC50 that approximates it; bounds were set here for any values at or beyond the usual limits of such assays
Conditions: source organism: Homo sapiens
pKd: −log10 of the molar value.
Let's look at some sequences and their measured pKd.
Measure Name: pKd

{"Residues": "RTDNGGWAH", "Measured Target": "HLA-A*01:01", "Reported Value": 7.20}
{"Residues": "IVDCLTEMY", "Measured Target": "HLA-A*01:01", "Reported Value": 6.79}
{"Residues": "SSEQTFMYY", "Measured Target": "HLA-A*01:01", "Reported Value": 7.38}

* * *

Let's look at some sequences and their measured Kd.
Molecular target: HLA-B*53:01
Assay: IEDB peptide-MHC binding, purified MHC/competitive/radioactivity; filed as Kd, often an IC50 or EC50 that approximates it; bounds were set here for any values at or beyond the usual limits of such assays
Conditions: source organism: Dengue virus 4 Philippines/H241/1956

{"Residues": "ITNELNYVLW", "Value Unit": "nM", "Kd": 483}
{"Residues": "CPLLVNTEPE", "Value Unit": "nM", "Kd": 1650}
{"Residues": "FALLAGFMAY", "Value Unit": "nM", "Kd": 3150}

Source: the Immune Epitope Database (IEDB)
